# MEASURED_TARGET: HLA-DRB1*04:01 (Homo sapiens, UniProt P01903+P01911, A100K/A169T/F76Y/I96L/K127E/L162R/M171V/N62H/P40V/Q125Y/R42H/S133A/S149N/S66Y/V115G/V209L/W38E)
# Construct: EBV transformed homozygous cell lines were used as sources of MHC molecules; endogenous in cells; host or cells: EBV transformed homozygous cell lines
# ASSAY_SUMMARY: HLA class II peptide binding, inhibition of radiolabeled peptide binding to purified MHC
# TEST_CONDITIONS: citrullinated 15-mer (X); purified MHC, inhibition of radiolabeled peptide binding; dash = IC50 >40,000 nM; read-out: DRB1*04:01 binding capacity, Cit peptide (IC50 nM)
Square brackets hold non-standard residues; d marks the D form. Peptide text beside a SMILES is read from it. Cit = NC(=O)NCCC[C@H](N)C(=O)O
Measured IC50 values are reported for all entries that follow.

CC(C)C[C@H](NC(=O)[C@H](CCCNC(=N)N)NC(=O)[C@@H](NC(=O)[C@H](C)NC(=O)[C@H](CO)NC(=O)[C@H](CO)NC(=O)[C@H](CCCNC(=N)N)NC(=O)[C@@H](NC(=O)[C@H](C)NC(=O)[C@@H](N)Cc1ccc(O)cc1)[C@@H](C)O)C(C)C)C(=O)N[C@@H](CCCNC(N)=O)C(=O)N[C@@H](CO)C(=O)N[C@@H](CO)C(=O)N[C@H](C(=O)N1CCC[C@H]1C(=O)O)C(C)C [YATRSSAVRLXSSVP] (H-YATRSSAVRL[Cit]SSVP-OH) ... 338 nM
C[C@H](NC(=O)[C@@H](NC(=O)CNC(=O)[C@@H]1CCCN1C(=O)CNC(=O)CN)[C@@H](C)O)C(=O)N[C@@H](CO)C(=O)N[C@@H](CCCNC(=N)N)C(=O)N1CCC[C@H]1C(=O)N[C@@H](CO)C(=O)N[C@@H](CO)C(=O)N[C@@H](CO)C(=O)N[C@@H](CCCNC(N)=O)C(=O)N[C@@H](CO)C(=O)N[C@@H](Cc1ccc(O)cc1)C(=O)O [GGPGTASRPSSSXSY] (H-GGPGTASRPSSS[Cit]SY-OH) ... > 40000 nM
CC(C)C[C@H](NC(=O)[C@H](CCC(=O)O)NC(=O)[C@H](CCC(N)=O)NC(=O)[C@H](CC(C)C)NC(=O)[C@H](CCC(=O)O)NC(=O)[C@@H](NC(=O)[C@H](CCCCN)NC(=O)[C@H](CCC(=O)O)NC(=O)[C@H](CC(N)=O)NC(=O)[C@@H](N)[C@@H](C)O)C(C)C)C(=O)N[C@@H](CC(N)=O)C(=O)N[C@@H](CC(=O)O)C(=O)N[C@@H](CCCNC(N)=O)C(=O)N[C@@H](Cc1ccccc1)C(=O)N[C@@H](C)C(=O)O [TNEKVELQELNDXFA] (H-TNEKVELQELND[Cit]FA-OH) ... > 40000 nM
CC(C)C[C@H](NC(=O)[C@H](CC(=O)O)NC(=O)[C@H](CC(C)C)NC(=O)[C@H](CCCNC(N)=O)NC(=O)[C@H](C)NC(=O)[C@H](CC(C)C)NC(=O)[C@H](CO)NC(=O)[C@H](C)NC(=O)[C@H](CC(N)=O)NC(=O)[C@H](CC(=O)O)NC(=O)[C@@H](NC(=O)[C@H](CC(=O)O)NC(=O)[C@H](CCC(N)=O)NC(=O)[C@H](CCCNC(=N)N)NC(=O)[C@@H](N)Cc1ccccc1)C(C)C)C(=O)O [FRQDVDNASLAXLDL] (H-FRQDVDNASLA[Cit]LDL-OH) ... 279 nM

Shifting focus to the molecule that follows.
Ask: For the molecule CC(C)C[C@H](NC(=O)[C@H](CCCNC(=N)N)NC(=O)[C@@H](NC(=O)[C@H](C)NC(=O)[C@H](CO)NC(=O)[C@H](CO)NC(=O)[C@H](CCCNC(N)=O)NC(=O)[C@@H](NC(=O)[C@H](C)NC(=O)[C@H](Cc1ccc(O)cc1)NC(=O)[C@@H](NC(=O)CNC(=O)CNC(=O)[C@@H]1CCCN1C(=O)[C@@H](N)CO)C(C)C)[C@@H](C)O)C(C)C)C(=O)O [SPGGVYATXSSAVRL] (H-SPGGVYAT[Cit]SSAVRL-OH) , what IC50 is on record?
Result: 329 nM
